Test system: HCI03 (cells of an ER-positive luminal breast cancer xenograft)
Experiment: cell viability (% of vehicle); higher = less cytotoxic
Settings: 10 µM; 72 h
experimental-endpoint: cell viability
Simply state the number, no unit and no words.

Please review the entries below; each comes with its answer.
Cc1nc(C(=O)NCC(=O)O)c(O)c2ccc(Oc3ccccc3)cc12	189
CN(N=O)C(=O)NC1C(O)OC(CO)C(O)C1O (stereo not drawn)	123
CCOc1cc2ncc(C#N)c(Nc3ccc(F)c(Cl)c3)c2cc1NC(=O)C=CCN(C)C [Pelitinib (EKB-569)]	60.7

cell viability recorded for this compound, CC(C)C(N)C(=O)OCCOCn1cnc2c(=O)nc(N)[nH]c21.Cl (stereo not drawn) [Valaciclovir HCl] , is 128

cell viability recorded for this compound, Cl.OC(c1cc(C(F)(F)F)nc2c(C(F)(F)F)cccc12)C1CCCCN1 (stereo not drawn) [Mefloquine hydrochloride] , is 40.5

cell viability recorded for this compound, NCCc1cnc[nH]1.O=P(O)(O)O.O=P(O)(O)O [Histamine Phosphate] , is 117

cell viability recorded for this compound, CC1=C(CC(=O)O)c2cc(F)ccc2C1=Cc1ccc(S(C)=O)cc1 (stereo not drawn) , is 89.2

cell viability recorded for this compound, Cc1cncc(CN2CCC(=C3c4ccc(Cl)cc4CCc4cccnc43)CC2)c1.O=C(O)C=CC(=O)O [Rupatadine Fumarate] , is 87.7

----------
Tested on: UCD52 (cells of a triple-negative basal-like breast cancer xenograft)
Test: cell viability of combination (% of vehicle); higher = less cytotoxic
Conditions: 1 µM; 72 h; partner dose: 10 nM
Listing of recorded cell viability of combination by entry.
Simply state the number, no unit and no words.

Please review the entries below; each comes with its answer.
Br.Cc1ccc(Sc2ccccc2N2CCNCC2)c(C)c1 + CC(C)C[C@H](NC(=O)[C@H](CCc1ccccc1)NC(=O)CN1CCOCC1)C(=O)N[C@@H](Cc1ccccc1)C(=O)N[C@@H](CC(C)C)C(=O)[C@@]1(C)CO1 [Carfilzomib]	50.8
CNCCC(Oc1ccc(C(F)(F)F)cc1)c1ccccc1.Cl (centres undefined) [Fluoxetine HCl] + CC(C)C[C@H](NC(=O)[C@H](CCc1ccccc1)NC(=O)CN1CCOCC1)C(=O)N[C@@H](Cc1ccccc1)C(=O)N[C@@H](CC(C)C)C(=O)[C@@]1(C)CO1 [Carfilzomib]	52.6
CC(NCCCc1cccc(C(F)(F)F)c1)c1cccc2ccccc12 (centres undefined) [Cinacalcet] + CC(C)C[C@H](NC(=O)[C@H](CCc1ccccc1)NC(=O)CN1CCOCC1)C(=O)N[C@@H](Cc1ccccc1)C(=O)N[C@@H](CC(C)C)C(=O)[C@@]1(C)CO1 [Carfilzomib]	56.1

// moving on: another record for cell viability of combination
cell viability of combination recorded for this compound, Nc1ccc2cc3ccc([NH3+])cc3nc2c1.Nc1ccc2cc3ccc([NH3+])cc3nc2c1.O=S(=O)([O-])[O-] [Proflavine Hemisulfate] + CC(C)C[C@H](NC(=O)[C@H](CCc1ccccc1)NC(=O)CN1CCOCC1)C(=O)N[C@@H](Cc1ccccc1)C(=O)N[C@@H](CC(C)C)C(=O)[C@@]1(C)CO1 [Carfilzomib] , is 94

----------
System: HCI09 (cells of a triple-negative luminal androgen receptor type breast cancer xenograft)
Experiment: cell viability (% of vehicle); higher = less cytotoxic
Conditions: 10 µM; 72 h
Threshold-based label: cell viability under 50 gives 1.0, cell viability not under 50 gives 0.0.

Ask | Determine whether this molecule shows cell viability lower than 50 (ties excluded): CC(C)Nc1cc(-c2c[nH]c(C(=O)NC(CO)c3cccc(Cl)c3)c2)c(Cl)cn1 (stereo unspecified)
Reply | 1.0

Ask | Determine whether this molecule shows cell viability lower than 50 (ties excluded): CC1(C)Cc2c(-c3ccccc3)c(-c3ccc(Cl)cc3)c(CC(=O)O)n2C1
Reply | 1.0

Ask | Determine whether this molecule shows cell viability lower than 50 (ties excluded): COc1cccc2c1C(=O)c1c(O)c3c(c(O)c1C2=O)CC(O)(C(=O)CO)CC3OC1CC(N)C(O)C(C)O1.Cl (stereo unspecified) [Epirubicin HCl]
Reply | 1.0

Ask | Determine whether this molecule shows cell viability lower than 50 (ties excluded): CC(=O)OC12COC1CC(O)C1(C)C(=O)C(O)C3=C(C)C(OC(=O)C(O)C(NC(=O)OC(C)(C)C)c4ccccc4)CC(O)(C(OC(=O)c4ccccc4)C21)C3(C)C.O.O.O (stereo unspecified) [Docetaxel Trihydrate]
Reply | 0.0

Ask | Determine whether this molecule shows cell viability lower than 50 (ties excluded): CCC1OC(=O)C(C)C(OC2CC(C)(OC)C(O)C(C)O2)C(C)C(OC2OC(C)CC(N(C)C)C2O)C(C)(O)CC(C)C(=NOCOCCOC)C(C)C(O)C1(C)O (stereo unspecified)
Reply | 0.0

----------
System: HCI01 (cells of a triple-negative basal-like breast cancer xenograft)
Assay: cell viability (% of vehicle); higher = less cytotoxic
Settings: 10 µM; 72 h
Threshold-based label: cell viability under 90 gives satisfied, cell viability not under 90 gives not satisfied.

Example entries begin here.
CC12CCC3c4ccc(OC(=O)c5ccccc5)cc4CCC3C1CCC2O (centres undefined) [Estradiol Benzoate]	not satisfied
COc1ccc(-c2ccc3cc(C(=O)O)ccc3c2)cc1C12CC3CC(CC(C3)C1)C2	not satisfied
CCOC(=O)C(CCc1ccccc1)NC(C)C(=O)N1Cc2ccccc2CC1C(=O)O.Cl (centres undefined) [Quinapril HCl]	satisfied
CC1CCc2cc(F)cc3c(=O)c(C(=O)O)cn1c23 (centres undefined)	not satisfied
CC(=O)Oc1cc2c(s1)CCN(C(C(=O)C1CC1)c1ccccc1F)C2 (centres undefined)	satisfied
Cl.NC1=NCC2c3ccccc3Cc3ccccc3N12 (centres undefined) [Epinastine HCl]	not satisfied
Cc1ccc(C(=O)N(CCCN)C(c2nc3cc(Cl)ccc3c(=O)n2Cc2ccccc2)C(C)C)cc1 (centres undefined)	satisfied
CNC(=C[N+](=O)[O-])NCCSCc1ccc(CN(C)C)o1.Cl	not satisfied
CN(C)CCc1c[nH]c2ccc(CS(=O)(=O)N3CCCC3)cc12.O=C(O)CC(O)C(=O)O [Almotriptan Malate]	not satisfied
CCCCc1oc2ccc(NS(C)(=O)=O)cc2c1C(=O)c1ccc(OCCCN(CCCC)CCCC)cc1.Cl [Dronedarone HCl]	satisfied

Ask | Determine whether this compound shows cell viability lower than 90 (ties excluded): CN1CCCN=C1C=Cc1cccs1.O=C(O)c1cc2ccccc2c(Cc2c(O)c(C(=O)O)cc3ccccc23)c1O [Pyrantel Pamoate]
Reply | satisfied

Ask | Determine whether this compound shows cell viability lower than 90 (ties excluded): Nc1ccc(O)c(C(=O)O)c1
Reply | not satisfied

----------
Listing of recorded cell viability by entry.
Test system: WHIM30 (cells of a triple-negative basal-like breast cancer xenograft)
Test: cell viability (% of vehicle); higher = less cytotoxic
Conditions: 10 µM; 72 h

Please review the entries below; each comes with its answer.
CC1(C)Cc2c(-c3ccccc3)c(-c3ccc(Cl)cc3)c(CC(=O)O)n2C1	88.4
OC(Cn1cncn1)(Cn1cncn1)c1ccc(F)cc1F [Fluconazole hydrate]	127
CCOc1cc(CC(=O)NC(CC(C)C)c2ccccc2N2CCCCC2)ccc1C(=O)O (stereo not given) [Repaglinide]	126
CN(C)CCC(c1ccccc1)c1ccccn1.O=C(O)C=CC(=O)O (stereo not given) [Pheniramine Maleate]	124

// moving on: another record for cell viability
cell viability recorded for this compound, CC(O)(P(=O)(O)O)P(=O)(O)O [Etidronate] , is 111

----------
Tested on: UCD52
Test: cell viability of combination (% of vehicle); higher = less cytotoxic
Conditions: 1 µM; 72 h; partner dose: 10 nM
Listing of recorded cell viability of combination by entry.
Simply state the number, no unit and no words.

CC(NCCCc1cccc(C(F)(F)F)c1)c1cccc2ccccc12.Cl (configuration not stated) [Cinacalcet HCl] + CC(C)C[C@H](NC(=O)[C@H](CCc1ccccc1)NC(=O)CN1CCOCC1)C(=O)N[C@@H](Cc1ccccc1)C(=O)N[C@@H](CC(C)C)C(=O)[C@@]1(C)CO1	59.9

cell viability of combination recorded for this compound, CNC(=O)c1cc(Oc2ccc(NC(=O)Nc3ccc(Cl)c(C(F)(F)F)c3)c(F)c2)ccn1.Cl [Regorafenib hydrochloride] + CC(C)C[C@H](NC(=O)[C@H](CCc1ccccc1)NC(=O)CN1CCOCC1)C(=O)N[C@@H](Cc1ccccc1)C(=O)N[C@@H](CC(C)C)C(=O)[C@@]1(C)CO1 , is 52.7

----------
Tested on: UCD52
Experiment: cell viability (% of vehicle); higher = less cytotoxic
Details: 10 µM; 72 h
Counter-ions that a name gives are not always drawn.
experimental-endpoint: cell viability
Simply state the number, no unit and no words.

O=C(O)c1ccc2c(c1)nc(Nc1cccc(Cl)c1)c1ccncc12 [CX-4945 (Silmitasertib)]	78
CCCNS(=O)(=O)Nc1ncnc(OCCOc2ncc(Br)cn2)c1-c1ccc(Br)cc1 [Macitentan]	75.4
COc1nc2ccc(Br)cc2cc1[C@@H](c1ccccc1)[C@@](O)(CCN(C)C)c1cccc2ccccc12 [Bedaquiline fumarate]	42.6
OCC(O)C(O)C(O)CO (configuration not stated) [Xylitol]	101
CC(=O)O[C@H]1C[C@@]2(C)[C@@H](C[C@@H](O)[C@H]3[C@@]4(C)CC[C@@H](O)[C@@H](C)[C@@H]4CC[C@@]32C)/C1=C(\CCC=C(C)C)C(=O)[O-].[Na+] [Fusidic Acid (sodium salt)]	111
N#CC1CC2CC2N1C(=O)C(N)C12CC3CC(CC(O)(C3)C1)C2 (configuration not stated) [Saxagliptin]	97.4

cell viability recorded for this compound, Cc1ccc(C(=O)C(C)CN2CCCCC2)cc1.Cl (configuration not stated) [Tolperisone HCl] , is 92.3

Origin of values: the supplement of paper PMC6992640
